Data provenance: PubChem BioAssay AID228

system: BDF1 mice, Friend leukemia sc, tumor weight T/C; experiment: NCI In Vivo Anticancer Drug Screen. Data for tumor model Friend Virus Leukemia (Solid) (subcutaneous) in B6D2F1 (BDF1) mice; conditions: endpoint: mean tumor weight; dose: 2.5 mg/kg/injection; schedule: Q01DX011 (ip); vehicle: carboxymethylcellulose (CMC); higher = larger tumour
Inconclusive results are not listed.
Kindly state T/C for each of the entries shown.

smiles-text | observed-result
O=C1C=Cc2ccc(O)cc2C1=O | 83 % of control
N[C@@H](Cc1ccc(N(CCCl)CCCl)cc1)C(=O)O | 50 % of control
O=C(O)CCc1c[nH]c2ccc(N(CCCl)CCCl)cc12 | 92 % of control

# per-item lookup of T/C; items listed below
1. O=C(Nc1ccc(C2=NCCN2)cc1)c1ccc(C(=O)Nc2ccc(C3=NCCN3)cc2)c(Cl)c1
2. CO/[N+]([O-])=C\C(=O)N/C=C/C(=O)O

["39 % of control", "105 % of control"]
